Source listed as ChEMBL document CHEMBL3124895.

Target: Induced myeloid leukemia cell differentiation protein Mcl-1 (Homo sapiens)
Assay: Inhibition of human recombinant MCL-1 (174 to 236) expressed in Escherichia coli BL21(DE3) using 6FAM-GELEVEFATQLRRFGDKLN as substrate after 15 mins by fluorescence polarization Assay
Measure Name: pIC50
# log scale: pIC50 equals minus log10 of the concentration in mol/L

Worked set:
Cc1ccc(-c2ccc(C(=O)O)c(NS(=O)(=O)c3ccccc3)c2)c2ccccc12 ... 6.40
O=C(O)c1cc(-c2ccccc2COc2cccc3ccccc23)ccc1O ... 6.24
Cc1ccc(-c2ccc(C(=O)O)c(NS(=O)(=O)c3ccc(OCCCN4CCOCC4)cc3)c2)c2ccccc12 ... 7.22

Next molecule, please.
Given Nc1cccc(-c2ccc(O)c(C(=O)O)c2)c1 , state its recorded pIC50.
3.72

---

A collection of compounds and their measured pIC50
Molecular target: Induced myeloid leukemia cell differentiation protein Mcl-1 (Homo sapiens)
Experiment: Inhibition of human recombinant MCL-1 (174 to 236) expressed in Escherichia coli BL21(DE3) using 6FAM-GELEVEFATQLRRFGDKLN as substrate after 15 mins by fluorescence polarization Assay
# log scale: pIC50 equals minus log10 of the concentration in mol/L

CCCCOc1ccc(F)c(-c2ccc(O)c(C(=O)O)c2)c1 ... 5.96
CN(C)c1cccc2ccc(O)cc12 ... 3.55
O=C(O)c1cc(-c2ccc(OCc3ccccc3)cc2)ccc1O ... 5.66
O=C(O)c1cc(-c2ccccc2)ccc1O ... 4.47
CCCc1ccc(-c2ccc(O)c(C(=O)O)c2)cc1 ... 5.48

Next compound, please.
Given Cc1cccc(-c2ccc(C(=O)O)c(NS(=O)(=O)c3ccccc3)c2)c1 , state its recorded pIC50.
5.74

---

Molecular target: Induced myeloid leukemia cell differentiation protein Mcl-1 (Homo sapiens, UniProt Q07820)
Sequence (Q07820 whole entry): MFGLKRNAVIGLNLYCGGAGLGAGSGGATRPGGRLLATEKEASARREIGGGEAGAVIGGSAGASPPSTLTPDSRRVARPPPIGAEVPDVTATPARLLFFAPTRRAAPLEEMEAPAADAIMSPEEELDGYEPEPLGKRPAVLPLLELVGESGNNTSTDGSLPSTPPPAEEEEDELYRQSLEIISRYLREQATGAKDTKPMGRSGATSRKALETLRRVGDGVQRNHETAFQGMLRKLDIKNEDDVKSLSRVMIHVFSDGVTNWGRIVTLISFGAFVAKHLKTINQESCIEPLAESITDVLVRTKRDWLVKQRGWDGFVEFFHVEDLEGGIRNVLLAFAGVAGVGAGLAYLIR
Experiment: Inhibition of human recombinant MCL-1 (174 to 236) expressed in Escherichia coli BL21(DE3) using 6FAM-GELEVEFATQLRRFGDKLN as substrate after 15 mins by fluorescence polarization Assay
Define the label as True when IC50 is strictly less than 6 µM and as False in all remaining cases.

Criterion: IC50 strictly below 6 µM. Is it met by Cc1ccc(S(=O)(=O)Nc2ccccc2-c2ccc(O)c(C(=O)O)c2)cc1 ?
False

Criterion: IC50 strictly below 6 µM. Is it met by O=C(O)c1ccc(-c2cccc3ncccc23)cc1NS(=O)(=O)c1ccccc1 ?
False

Criterion: IC50 strictly below 6 µM. Is it met by Cc1ccc(-c2ccc(C(=O)O)c(NS(=O)(=O)c3ccc(N4CCOCC4)cc3)c2)c2ccccc12 ?
True

Criterion: IC50 strictly below 6 µM. Is it met by Cc1ccc(-c2ccc(C(=O)O)c(NS(=O)(=O)c3ccc(NC(=O)NCC(C)C)cc3)c2)c2ccccc12 ?
True

Criterion: IC50 strictly below 6 µM. Is it met by Cc1ccc(-c2ccc(O)c(C(=O)O)c2)cc1C ?
False

Criterion: IC50 strictly below 6 µM. Is it met by O=C1CC(c2cccc(C(F)(F)F)c2)=NN1 ?
False

Criterion: IC50 strictly below 6 µM. Is it met by Cc1ccc(-c2ccc(C(=O)O)c(NS(=O)(=O)c3cccc(N4CCOCC4)c3)c2)c2ccccc12 ?
True

---

Target: Induced myeloid leukemia cell differentiation protein Mcl-1 (Homo sapiens, UniProt Q07820)
Assay: Inhibition of human recombinant MCL-1 (174 to 236) expressed in Escherichia coli BL21(DE3) using 6FAM-GELEVEFATQLRRFGDKLN as substrate after 15 mins by fluorescence polarization Assay
pIC50: −log10 of the molar value.
// label = satisfied if pIC50 is not less than 6, otherwise not satisfied

Solved entries:
Cc1ccc(-c2ccc(C(=O)O)c(NS(=O)(=O)c3ccccc3)c2)cc1 ... not satisfied
O=C(O)c1cc(-c2ccccc2OCc2ccccc2)ccc1O ... not satisfied
Cc1ccc(-c2ccc(O)c(C(=O)O)c2)cc1 ... not satisfied

Decide: is the reported value of pIC50 for CS(=O)(=O)Nc1ccccc1-c1ccc(O)c(C(=O)O)c1 equal to or greater than 6?
not satisfied

Decide: is the reported value of pIC50 for Oc1nc2c(ccc3ccccc32)o1 equal to or greater than 6?
not satisfied

---

A collection of compounds and their measured pIC50
Molecular target: Induced myeloid leukemia cell differentiation protein Mcl-1 (Homo sapiens)
Assay: Inhibition of human recombinant MCL-1 (174 to 236) expressed in Escherichia coli BL21(DE3) using 6FAM-GELEVEFATQLRRFGDKLN as substrate after 15 mins by fluorescence polarization Assay
# log scale: pIC50 equals minus log10 of the concentration in mol/L

Worked set:
O=C(O)c1cc(-c2ccccc2COc2cccc(C(F)(F)F)c2)ccc1O ... 6.17
O=C(O)c1cc(-c2ccc3ncccc3c2)ccc1O ... 4.66
O=C(O)c1ccc(-c2cccc3ccccc23)cc1NS(=O)(=O)c1ccccc1 ... 6.00
CCCCCc1ccc(S(=O)(=O)Nc2cc(-c3ccc(C)c4ccccc34)ccc2C(=O)O)cc1 ... 6.52
Cc1ccc(-c2ccc(C(=O)O)c(NS(=O)(=O)c3ccc(Oc4ccccc4)cc3)c2)c2ccccc12 ... 6.30

Given O=C(O)c1cc(-c2cccc3ccccc23)ccc1O , state its recorded pIC50.
4.51

Given Cc1ccccc1-c1ccc(O)c(C(=O)O)c1 , state its recorded pIC50.
4.66

Given CCC(C)c1ccc(S(=O)(=O)Nc2cc(-c3ccc(C)c4ccccc34)ccc2C(=O)O)cc1 (configuration not stated) , state its recorded pIC50.
5.92

Given Cc1ccc(-c2ccc(C(=O)O)c(NS(=O)(=O)c3ccc(C(=O)N(C)C)cc3)c2)c2ccccc12 , state its recorded pIC50.
7.10

Given Cc1ccc(-c2ccc(C(=O)O)c(NS(=O)(=O)c3ccc(OCCn4cccn4)cc3)c2)c2ccccc12 , state its recorded pIC50.
7.52

Given O=C(O)c1cc(-c2ccccc2OCc2ccccc2Cl)ccc1O , state its recorded pIC50.
6.11

Given C=Cc1ccc(C(=O)OCC)c(NS(=O)(=O)c2ccccc2)c1 , state its recorded pIC50.
5.47
